viability at 72 h, 100 µM by entry:
test: Cytotoxicity against African green monkey Vero cells assessed as cell viability at 100 uM after 72 hrs by MTT assay relative to control; format: cell-based; conditions: chlorocebus sabaeus, read-out: Activity
Numeric answer only, unit % assumed.

# smiles.entry, readout.type, experimental.result
data = [
    ("CCOC(=O)c1cn(CC)c2c(cc(OC)c3nn(C)nc32)c1=O", "viability at 72 h, 100 µM", 79.3),
]

Exercise: Quickly give me recorded viability at 72 h, 100 µM for CCOc1cc2c(=O)c(C(=O)O)cn(C)c2c2nnn(C)c12
Solution: 94.3

###

experiment: Cytotoxicity against African green monkey Vero cells assessed as cell viability at 100 uM after 72 hrs by MTT assay relative to control; assay type: cell-based; conditions: chlorocebus sabaeus, read-out: Activity
readout.type: viability at 72 h, 100 µM (%)
Numeric answer only, unit % assumed.

Some solved cases for reference:
# molecule, viability at 72 h, 100 µM (%)
records = [
    ("Cn1cc(C(=O)O)c(=O)c2cc(F)c3c(nnn3C)c21", 81.2),
    ("COC(=O)c1cn(C)c2c(ccc3c2nnn3C)c1=O", 91.2),
]

Exercise: Quickly give me recorded viability at 72 h, 100 µM for COc1cc2c(=O)c(C(=O)O)c[nH]c2c2c1nnn2C
Solution: 92.9

Exercise: Quickly give me recorded viability at 72 h, 100 µM for CCn1cc(C(=O)O)c(=O)c2cc(F)c3c(nnn3C)c21
Solution: 95.1

Exercise: Quickly give me recorded viability at 72 h, 100 µM for COc1cc2c(=O)c(C(=O)O)cn(C)c2c2nnn(C)c12
Solution: 90.4

Exercise: Quickly give me recorded viability at 72 h, 100 µM for CCOC(=O)c1cnc2c(cc(OC)c3nnn(C)c32)c1OC
Solution: 80.8

Exercise: Quickly give me recorded viability at 72 h, 100 µM for CCOC(=O)c1cn(CC)c2c(cc(OC)c3c2nnn3C)c1=O
Solution: 84.4

Exercise: Quickly give me recorded viability at 72 h, 100 µM for COc1cc2c(=O)c(C(=O)O)c[nH]c2c2nnn(C)c12
Solution: 90.2

Exercise: Quickly give me recorded viability at 72 h, 100 µM for CCn1cc(C(=O)O)c(=O)c2cc(OC)c3c(nnn3C)c21
Solution: 90.1

Values compiled from ChEMBL document CHEMBL4325868.
